Origin of values: patent US7893068B2

- TEST_METHOD_NOTES: Body weight loss (acute toxicity) in the WiDr tumor model
- Format: in vivo, nude mice
- PROTOCOL_CONDITIONS: Dose 2.5 mg/kg, intravenous 5 consecutive days; body weight relative to Day 1
RECORDED_METRIC: the minimum relative weight ratios

Given the entry CCC(O)C(C)C1OC1CC(C)(O)/C=C/C=C(\C)C1OC(=O)CC(O)CCC(C)(O)C(OC(=O)N2CCN(C3CCCCC3)CC2)/C=C/C1C (stereo not drawn) , report its measured the minimum relative weight ratios.
0.93

And for CCC(O)C(C)C1OC1CC(C)(O)/C=C/C=C(\C)C1OC(=O)CC(O)CCC(C)(O)C(OC(=O)N2CCN(CC)CC2)/C=C/C1C (stereo not drawn) ?
0.80

And for CCC(O)C(C)C1OC1CC(C)(O)/C=C/C=C(\C)C1OC(=O)CC(O)CCC(C)(O)C(OC(=O)N(C)C2CCN(C)CC2)/C=C/C1C (stereo not drawn) ?
0.82

---

- TEST_METHOD_NOTES: Stability in an aqueous solution (HPLC residual ratio)
- PROTOCOL_CONDITIONS: Britton-Robinson's buffer pH 7, 25° C., 24 hours
RECORDED_METRIC: The residual ratios (%)
Give the value, in units of %, as a plain number.

Given the entry CCC(OC)C(C)C1OC1C(O)C(C)/C=C/C=C(\C)C1OC(=O)CC(O)CCC(C)(O)C(OC(C)=O)/C=C/C1C (centres unmarked) [FD895, reference compound] , report its measured The residual ratios (%).
83

And for CCC(O)C(C)C1OC1CC(C)(O)/C=C/C=C(\C)C1OC(=O)CC(O)CCC(C)(OC)C(OC(=O)N2CCC(N3CCCCC3)CC2)/C=C/C1C (centres unmarked) ?
94.9

And for CCC(O)C(C)C1OC1CC(C)(O)/C=C/C=C(\C)C1OC(=O)CC(O)CCC(C)(O)C(OC(=O)N2CCN(C3CCCCCC3)CC2)/C=C/C1C (centres unmarked) ?
95.0

And for CCC(O)C(C)C1OC1CC(C)(O)/C=C/C=C(\C)C1OC(=O)CC(O)CCC(C)(O)C(OC(=O)N2CCCN(C)CC2)/C=C/C1C (centres unmarked) ?
96.2

And for CCC(O)C(C)C1OC1CC(C)(O)/C=C/C=C(\C)C1OC(=O)CC(O)CCC(C)(O)C(OC(C)=O)/C=C/C1C (centres unmarked) [Compound 11107D] ?
95.6

And for CCC(O)C(C)C1OC1CC(C)(O)/C=C/C=C(\C)C1OC(=O)CC(O)CCC(C)(O)C(OC(=O)N2CCN(C)CC2)/C=C/C1C (centres unmarked) ?
94.9

And for CCC(O)C(C)C1OC1CC(C)(O)/C=C/C=C(\C)C1OC(=O)CC(O)CCC(C)(OC(=O)N2CCCN(CC)CC2)C(OC(C)=O)/C=C/C1C (centres unmarked) ?
95.4

And for CCC(O)C(C)C1OC1CC(C)(O)/C=C/C=C(\C)C1OC(=O)CC(O)CCC(C)(O)C(OC(=O)N2CCC(N3CCCCC3)CC2)/C=C/C1C (centres unmarked) ?
95.8

---

- TEST_METHOD_NOTES: Body weight loss (acute toxicity) in the WiDr tumor model
- Type: in vivo, nude mice
- PROTOCOL_CONDITIONS: Dose 5.0 mg/kg, intravenous 5 consecutive days; body weight relative to Day 1
- Description: In order to study solid tumor growth inhibitory activities of the compounds of the formula (I) in vivo, WiDr human colon cancer cells were implanted subcutaneously into the flanks of nude mice. transplanted to the subcutaneous body sides of mice. […] The tumor volumes on Day 15 were measured, and relative tumor volume ratios (T/C %) were determined setting the tumor volume of the control group as 100%. […]
For each record, write down the corresponding the minimum relative weight ratios.
Provide a numeric answer; units are not to be included.

Given the entry CCC(O)C(C)C1OC1CC(C)(O)/C=C/C=C(\C)C1OC(=O)CC(O)CCC(C)(O)C(OC(=O)N2CCC(N3CCCCC3)CC2)/C=C/C1C (centres unmarked) , report its measured the minimum relative weight ratios.
0.74

And for CCC(O)C(C)C1OC1CC(C)(O)/C=C/C=C(\C)C1OC(=O)CC(O)CCC(C)(O)C(OC(=O)N2CCN(C(C)C)CC2)/C=C/C1C (centres unmarked) ?
0.89

And for CCC(O)C(C)C1OC1CC(C)(O)/C=C/C=C(\C)C1OC(=O)CC(O)CCC(C)(O)C(OC(=O)N2CCN(C3CCCCCC3)CC2)/C=C/C1C (centres unmarked) ?
0.90

And for CCC(O)C(C)C1OC1CC(C)(O)/C=C/C=C(\C)C1OC(=O)CC(O)CCC(C)(O)C(OC(=O)N(C)CCN(CC)CC)/C=C/C1C (centres unmarked) ?
0.82

And for CCC(O)C(C)C1OC1CC(C)(O)/C=C/C=C(\C)C1OC(=O)CC(O)CCC(C)(O)C(OC(=O)N2CCCN(C)CC2)/C=C/C1C (centres unmarked) ?
0.86

---

- TEST_METHOD_NOTES: Stability in an aqueous solution (HPLC residual ratio)
- PROTOCOL_CONDITIONS: Britton-Robinson's buffer pH 7, before incubation
RECORDED_METRIC: Peak area (mAU × sec) initial
Give the value, in units of mAU × sec, as a plain number.

Given the entry CCC(O)C(C)C1OC1CC(C)(O)/C=C/C=C(\C)C1OC(=O)CC(O)CCC(C)(O)C(OC(=O)N2CCN(C(C)C)CC2)/C=C/C1C (stereo not drawn) , report its measured Peak area (mAU × sec) initial.
4031

And for CCC(O)C(C)C1OC1CC(C)(O)/C=C/C=C(\C)C1OC(=O)CC(O)CCC(C)(O)C(OC(=O)CCc2ccccc2)/C=C/C1C (stereo not drawn) ?
3916

And for CCC(O)C(C)C1OC1CC(C)(O)/C=C/C=C(\C)C1OC(=O)CC(O)CCC(C)(O)C(OC(C)=O)/C=C/C1C (stereo not drawn) [Compound 11107D] ?
3994
